Origin of the recorded values: patent US9273033B2

List of Ki tested on UniProtKB Q9Y233.
Numbers only; they are read as nM.

Cc1ccc([C@H]2C[C@@H]2COc2nc(C)ncc2-c2cc(=O)n(C)cc2Cl)nc1 [Example 99] | 1.11
COc1ccc([C@H]2C[C@@H]2COc2nc(C)ncc2-c2ccc(=O)n(CCC#N)c2)nc1 [Example 45] | 1.78
COc1ccc([C@H]2C[C@@H]2COc2nc(C)ncc2-c2ccn(C)c(=O)c2)nc1 [Example 70] | 1.25

Tested on UniProtKB Q9Y233: COCCn1c(C)c(-c2cnc(C)nc2OC[C@H]2C[C@@H]2c2ccc3ccccc3n2)ccc1=O [Example 31] . Observed Ki: 0.045

###

List of Ki tested on human PDE10A2 (Homo sapiens (Human), UniProt Q9Y233).
Sequence (Q9Y233 267-1055): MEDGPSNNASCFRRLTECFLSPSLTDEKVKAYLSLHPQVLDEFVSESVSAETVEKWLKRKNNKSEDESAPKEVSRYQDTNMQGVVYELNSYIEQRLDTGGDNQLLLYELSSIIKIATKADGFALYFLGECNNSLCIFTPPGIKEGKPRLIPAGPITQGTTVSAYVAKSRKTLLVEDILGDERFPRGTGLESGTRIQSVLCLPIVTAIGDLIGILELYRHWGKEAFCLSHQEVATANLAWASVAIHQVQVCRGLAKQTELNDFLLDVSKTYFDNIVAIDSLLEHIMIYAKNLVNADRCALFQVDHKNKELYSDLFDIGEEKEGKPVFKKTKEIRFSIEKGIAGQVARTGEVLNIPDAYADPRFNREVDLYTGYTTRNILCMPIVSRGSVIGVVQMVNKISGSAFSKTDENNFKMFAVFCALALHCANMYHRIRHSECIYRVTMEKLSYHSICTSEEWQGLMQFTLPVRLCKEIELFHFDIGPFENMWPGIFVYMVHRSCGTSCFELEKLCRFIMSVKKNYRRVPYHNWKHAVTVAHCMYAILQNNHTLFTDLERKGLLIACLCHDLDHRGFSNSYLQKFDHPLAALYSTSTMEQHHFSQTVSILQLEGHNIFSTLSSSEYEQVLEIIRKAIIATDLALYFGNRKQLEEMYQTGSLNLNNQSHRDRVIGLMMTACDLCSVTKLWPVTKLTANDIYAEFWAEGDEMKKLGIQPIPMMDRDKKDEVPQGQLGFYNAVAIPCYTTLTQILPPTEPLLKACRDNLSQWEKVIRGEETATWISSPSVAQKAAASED
Numbers only; they are read as nM.

COc1ccc([C@H]2C[C@@H]2COc2nc(C)ncc2-c2ccc(=O)n(C(C)C)c2)nc1 | 0.827
Cc1ccc([C@H]2C[C@@H]2COc2nc(C)ncc2-c2ccn(CCO)c(=O)c2)nc1 | 1.01
Cc1ccc([C@H]2C[C@@H]2COc2nc(C)ncc2-c2ccc(=O)n(C)c2C)nc1 | 0.217
Cc1ncc(-c2cc(=O)n(C)cc2C)c(OC[C@H]2C[C@@H]2c2ccc3c(n2)CCC3)n1 | 0.033
COc1ccc([C@H]2C[C@@H]2COc2nc(C)ncc2-c2cc(F)c(=O)n(C)c2)nc1 | 1.29

Tested on human PDE10A2 (Homo sapiens (Human), UniProt Q9Y233): CCc1cc(-c2cnc(C)nc2OC[C@H]2C[C@@H]2c2ccc(OC)cn2)cn(C)c1=O . Observed Ki: 0.185

Tested on human PDE10A2 (Homo sapiens (Human), UniProt Q9Y233): COc1ccc([C@H]2C[C@@H]2COc2nc(C)ncc2-c2ccc(=O)n(-c3ccccc3)c2)nc1 . Observed Ki: 4.68

Tested on human PDE10A2 (Homo sapiens (Human), UniProt Q9Y233): COc1ccc([C@H]2C[C@@H]2COc2nc(C)ncc2-c2ccc(=O)n(C(F)F)c2)nc1 . Observed Ki: 1.21

###

Target: human PDE10A2 (Homo sapiens (Human), UniProt Q9Y233)
pKi: −log10 of the molar value.
Label TRUE when pKi is at or above 9; anything below gets FALSE.

Below, 3 molecules whose answers are already recorded.
Cc1ncc(-c2ccn(C)c(=O)c2)c(OC[C@@H]2C[C@H]2c2ccc(OC(F)F)cn2)n1 [Example 94] | FALSE
COc1ccc([C@H]2C[C@@H]2COc2nc(C)ncc2-c2cn(C)c(=O)cn2)nc1 [Example 61] | FALSE
COc1ccc([C@H]2C[C@@H]2COc2nc(C)ncc2-c2ccn(CC#N)c(=O)c2)nc1 [Example 111] | TRUE

Now consider the entry below.
Check the entry Cc1ncc(-c2ccc(=O)n(C(C)C)c2)c(OC[C@H]2C[C@@H]2c2ccc3ccccc3n2)n1 [Example 9] : does pKi equal or exceed 9? TRUE

###

Biological target: human PDE10A2 (Homo sapiens (Human))
Rule for this label: fulfilled means Ki is less than 1 nM; not fulfilled means Ki is at least 1 nM.

COc1ccc([C@H]2C[C@@H]2COc2nc(C)ncc2-c2cc(C)n(C)c(=O)c2)nc1 [Example 87] | fulfilled

API: query returns whether the compound falls strictly under 1 nM in Ki. Query: COCCn1ccc(-c2cnc(C)nc2OC[C@H]2C[C@@H]2c2ccc(OC)cn2)cc1=O [Example 118] fulfilled

API: query returns whether the compound falls strictly under 1 nM in Ki. Query: Cc1ccc([C@H]2C[C@@H]2COc2nc(C)ncc2-c2cc(C)n(C)c(=O)c2)nc1 [Example 86] not fulfilled

API: query returns whether the compound falls strictly under 1 nM in Ki. Query: COc1ccc([C@H]2C[C@@H]2COc2nc(C)ncc2-c2ccc(=O)n(C)c2C)nc1 [Example 27] fulfilled

API: query returns whether the compound falls strictly under 1 nM in Ki. Query: Cc1ccc([C@H]2C[C@@H]2COc2nc(C)ncc2-c2ccc(=O)n(C3CC3)c2)nc1 [Example 23] fulfilled

###

Overview of recorded Ki for various molecules
Target: human PDE10A2 (Homo sapiens (Human), UniProt Q9Y233)
Numbers only; they are read as nM.

Some solved entries appear below for comparison.
[2H]C([2H])([2H])n1ccc(-c2cnc(C)nc2OC[C@H]2C[C@@H]2c2ccc(C)cn2)cc1=O | 1.66
Cc1ncc(-c2ccn(C)c(=O)c2)c(OC[C@H]2C[C@@H]2c2ccc3c(n2)CCC3)n1 | 0.378
Cc1ccc([C@H]2C[C@@H]2COc2nc(C)ncc2-c2cc(F)c(=O)n(C)c2)nc1 | 1.55
COc1ccc([C@H]2C[C@@H]2COc2nc(C)ncc2-c2cc(=O)n(C)cc2C#N)nc1 | 7.39
COc1cc(-c2cnc(C)nc2OC[C@H]2C[C@@H]2c2ccc3ccccc3n2)cn(C)c1=O | 0.004
Cc1ncc(-c2ccn(C)c(=O)c2)c(OC[C@H]2C[C@@H]2c2ccc(OC(F)F)cn2)n1 | 9.22

Tested on human PDE10A2 (Homo sapiens (Human), UniProt Q9Y233): Cc1ncc(-c2ccc(=O)n(C)c2)c(OC[C@H]2C[C@@H]2c2ccc3ccccc3n2)n1 . Observed Ki: 0.052

Tested on human PDE10A2 (Homo sapiens (Human), UniProt Q9Y233): CCn1c(C)c(-c2cnc(C)nc2OC[C@H]2C[C@@H]2c2ccc(C)cn2)ccc1=O . Observed Ki: 1.95

Tested on human PDE10A2 (Homo sapiens (Human), UniProt Q9Y233): CCc1cc(-c2cnc(C)nc2OC[C@H]2C[C@@H]2c2ccc(C)cn2)cn(C)c1=O . Observed Ki: 0.347

Tested on human PDE10A2 (Homo sapiens (Human), UniProt Q9Y233): Cc1ncc(-c2ccn(C)c(=O)c2)c(OC[C@H]2C[C@@H]2c2ccccn2)n1 . Observed Ki: 10.8

Tested on human PDE10A2 (Homo sapiens (Human), UniProt Q9Y233): COCCn1cc(-c2cnc(C)nc2OC[C@H]2C[C@@H]2c2ccc(C)cn2)ccc1=O . Observed Ki: 1.38

###

Overview of recorded Ki for various compounds
Target: human PDE10A2 (Homo sapiens (Human))
Please state the value followed by its unit.

Cc1ccc([C@H]2C[C@@H]2COc2nc(C)ncc2-c2ccc(=O)n(CC3CC3)c2)nc1 [Example 49] | 0.983 nM
Cc1ccc([C@H]2C[C@@H]2COc2nc(C)ncc2-c2ccn(C(F)F)c(=O)c2)nc1 [Example 116] | 1.83 nM

Tested on human PDE10A2 (Homo sapiens (Human)): COc1ccc([C@H]2C[C@@H]2COc2nc(C)ncc2-c2ccn(CCO)c(=O)c2)nc1 [Example 127] . Observed Ki: 0.64 nM

Tested on human PDE10A2 (Homo sapiens (Human)): [2H]C([2H])([2H])n1cc(-c2cnc(C)nc2OC[C@H]2C[C@@H]2c2ccc(OC)cn2)ccc1=O [Example 51] . Observed Ki: 0.946 nM

###

List of log10 of Ki tested on UniProtKB Q9Y233.
// stored as log10 of Ki expressed in pM

CCOC(=O)c1cn(C)c(=O)cc1-c1cnc(C)nc1OC[C@H]1C[C@@H]1c1ccc(OC)cn1 [Example 108] | 5.00
COC(=O)Cn1cc(-c2cnc(C)nc2OC[C@H]2C[C@@H]2c2ccc(C)cn2)ccc1=O [Example 1] | 3.64
Cc1ncc(-c2cc(=O)n(C)cc2Cl)c(OC[C@H]2C[C@@H]2c2ccc3ccccc3n2)n1 [Example 102] | 1.60
COCCn1ccc(-c2cnc(C)nc2OC[C@H]2C[C@@H]2c2ccc(C)cn2)cc1=O [Example 85] | 2.64
COC(=O)Cn1ccc(-c2cnc(C)nc2OC[C@H]2C[C@@H]2c2ccc(C)cn2)cc1=O [Example 129] | 2.60

The value of log10 of Ki measured for the molecule COc1ccc([C@H]2C[C@@H]2COc2nc(C)ncc2-c2ccc(=O)n(C)c2)nc1 [Example 2] turned out to be 3.00

The value of log10 of Ki measured for the molecule Cc1ccc([C@H]2C[C@@H]2COc2nc(C)ncc2-c2ccn(CC(F)(F)F)c(=O)c2)nc1 [Example 105] turned out to be 2.87

The value of log10 of Ki measured for the molecule Cc1ccc([C@H]2C[C@@H]2COc2nc(C)ncc2-c2cc(C)c(=O)n(C)n2)nc1 [Example 65] turned out to be 3.26

The value of log10 of Ki measured for the molecule CCn1cc(-c2cnc(C)nc2OC[C@H]2C[C@@H]2c2ccc3ccccc3n2)ccc1=O [Example 32] turned out to be 1.38

###

List of Ki tested on human PDE10A2 (Homo sapiens (Human), UniProt Q9Y233).
Numbers only; they are read as nM.

Some solved entries appear below for comparison.
COc1ccc([C@H]2C[C@@H]2COc2nc(C)ncc2-c2cc(=O)n(C)cc2SC)nc1 [Example 92] | 12.5
CCn1ccc(-c2cnc(C)nc2OC[C@H]2C[C@@H]2c2ccc(OC)cn2)cc1=O [Example 95] | 0.75
Cc1ccc([C@H]2C[C@@H]2COc2nc(C)ncc2-c2cnn(C)c(=O)c2)nc1 [Example 135] | 6.31
Cc1ccc([C@H]2C[C@@H]2COc2nc(C)ncc2-c2cc(C)c(=O)n(C)c2)nc1 [Example 40] | 0.409

// switching to the query compound
Tested on human PDE10A2 (Homo sapiens (Human), UniProt Q9Y233): COc1ccc([C@H]2C[C@@H]2COc2nc(C)ncc2-c2ccn(CC(F)F)c(=O)c2)nc1 [Example 130] . Observed Ki: 0.386
